Experiment: in vitro
Conditions: dog, CC50, MDCK cells; run with Influenza A H1N1 California/07/2009; Neutral Red
Bridge positions count the residues as written; N and C are the ends. Square brackets hold non-standard residues; d marks the D form. Peptide text beside a SMILES is read from it. S5 = C=CCCC[C@](C)(N)C(=O)O; Aib = CC(C)(N)C(=O)O
measurement.type: CC50

Query string: Fill in: CC50 of CC(=O)N[C@@H](Cc1ccccc1)C(=O)N[C@@H](CC(=O)O)C(=O)N[C@H](C(=O)N[C@@H](CC(N)=O)C(=O)N[C@@]1(C)CCCC=CCCC[C@@](C)(C(=O)N[C@@H](CC(C)C)C(=O)N[C@@H](CCCCN)C(=O)N[C@H](C(=O)NC(C)(C)C(=O)N[C@@H](C)C(=O)N[C@@H](CCC(N)=O)C(N)=O)C(C)C)NC(=O)[C@H](CC(C)C)NC(=O)[C@H](CC(C)C)NC(=O)[C@H]([C@@H](C)O)NC1=O)C(C)C [SP-4] (Ac-FDVN[S5]TLL[S5]LKV[Aib]AQ-NH2; staple 5-9) is ___
Result string: > 100 µM

====

Here, each record is paired with measured EC50 data.
Test system: H3N2 Perth/16/2009
Assay: microbe, parasite or virus in culture
Format: cell-based, influenza A virus
Settings: read-out: EC50 (μM) H3N2 Perth/16/2009
Bridge positions count the residues as written; N and C are the ends. Square brackets hold non-standard residues; d marks the D form. Peptide text beside a SMILES is read from it. S5 = C=CCCC[C@](C)(N)C(=O)O; Nle = CCCC[C@H](N)C(=O)O; Aib = CC(C)(N)C(=O)O

Query string: Fill in: EC50 of CCCC[C@H](NC(C)=O)C(=O)N[C@@H](CC(=O)O)C(=O)N[C@H](C(=O)N[C@@H](CC(N)=O)C(=O)N[C@@]1(C)CCCC=CCCC[C@@](C)(C(=O)N[C@@H](CC(C)C)C(=O)N[C@@H](C)C(=O)N[C@H](C(=O)N[C@@H](CCC(N)=O)C(=O)NC(C)(C)C(=O)N[C@@H](CCC(N)=O)C(=O)N[C@@H](C)C(=O)N[C@@H](C)C(N)=O)C(C)C)NC(=O)[C@H](CC(C)C)NC(=O)[C@H](CC(C)C)NC(=O)[C@H]([C@@H](C)O)NC1=O)C(C)C [SP-19] (Ac-[Nle]DVN[S5]TLL[S5]LAVQ[Aib]QAA-NH2; staple 5-9) is ___
Result string: 1.5 to 10 µM

Query string: Similarly, CCCC[C@H](NC(C)=O)C(=O)N[C@@H](CC(=O)O)C(=O)N[C@H](C(=O)N[C@@H](CC(N)=O)C(=O)N[C@@]1(C)CCCC=CCCC[C@@](C)(C(=O)N[C@@H](CC(C)C)C(=O)N[C@@H](CCCCN)C(=O)N[C@H](C(=O)NC(C)(C)C(=O)N[C@@H](C)C(=O)N[C@@H](C)C(N)=O)C(C)C)NC(=O)[C@H](CC(C)C)NC(=O)[C@H](CC(C)C)NC(=O)[C@H]([C@@H](C)O)NC1=O)C(C)C [SP-2] (Ac-[Nle]DVN[S5]TLL[S5]LKV[Aib]AA-NH2; staple 5-9) ?
Result string: 10 to 25 µM

====

Experiment: in vitro
Details: dog, CC50, MDCK cells; run with Influenza A H1N1 Brisbane/59/2007; Visual
Bridge positions count the residues as written; N and C are the ends. Square brackets hold non-standard residues; d marks the D form. Peptide text beside a SMILES is read from it. S5 = C=CCCC[C@](C)(N)C(=O)O; Nle = CCCC[C@H](N)C(=O)O; Aib = CC(C)(N)C(=O)O
measurement.type: CC50

Query string: Fill in: CC50 of CCCC[C@H](NC(C)=O)C(=O)N[C@@H](CC(=O)O)C(=O)N[C@H](C(=O)N[C@@H](CC(N)=O)C(=O)N[C@@]1(C)CCCC=CCCC[C@@](C)(C(=O)N[C@@H](CC(C)C)C(=O)N[C@@H](C)C(=O)N[C@H](C(=O)NC(C)(C)C(=O)N[C@@H](C)C(=O)N[C@@H](CCC(N)=O)C(N)=O)C(C)C)NC(=O)[C@H](CC(C)C)NC(=O)[C@H](CC(C)C)NC(=O)[C@H]([C@@H](C)O)NC1=O)C(C)C [SP-6] (Ac-[Nle]DVN[S5]TLL[S5]LAV[Aib]AQ-NH2; staple 5-9) is ___
Result string: > 100 µM

====

System: H3N2 Perth/16/2009
Test: microbe, parasite or virus in culture
Assay type: cell-based, influenza A virus
Conditions: Influenza A H3N2 Perth/16/2006 (so in the source); Drug Assay Neutral Red; read-out: EC50
Bridge positions count the residues as written; N and C are the ends. Square brackets hold non-standard residues; d marks the D form. Peptide text beside a SMILES is read from it. R8 = C=CCCCCCC[C@@](C)(N)C(=O)O; S5 = C=CCCC[C@](C)(N)C(=O)O; Nle = CCCC[C@H](N)C(=O)O
measurement.type: pEC50
In plain terms, pEC50 is the concentration in mol/L turned into minus its base-10 logarithm.

Query string: Query for H3N2 Perth/16/2009: what pEC50 does the record show for CCCC[C@H](NC(C)=O)C(=O)N[C@@H](CC(=O)O)C(=O)N[C@H](C(=O)N[C@@H](CC(N)=O)C(=O)N[C@]1(C)CCCCCCC=CCCC[C@@](C)(C(=O)N[C@@H](C)C(=O)N[C@@H](C)C(=O)N[C@@H](CCC(N)=O)C(N)=O)NC(=O)[C@H](C)NC(=O)[C@H](CC(C)C)NC(=O)[C@H](Cc2ccccc2)NC(=O)[C@H](CC(C)C)NC(=O)[C@H](CC(C)C)NC(=O)[C@H]([C@@H](C)O)NC1=O)C(C)C [SP-18] (Ac-[Nle]DVN[R8]TLLFLA[S5]AAQ-NH2; staple 5-12) ?
Result string: 4.66

====

Here, each record is paired with measured CC50 data.
Test: in vitro
Settings: dog, CC50, run with Influenza A H1N1 California/07/2009; Visual
Bridge positions count the residues as written; N and C are the ends. Square brackets hold non-standard residues; d marks the D form. Peptide text beside a SMILES is read from it. R8 = C=CCCCCCC[C@@](C)(N)C(=O)O; S5 = C=CCCC[C@](C)(N)C(=O)O; Nle = CCCC[C@H](N)C(=O)O; Aib = CC(C)(N)C(=O)O

| molecule | CC50 |
| --- | --- |
| CCCC[C@H](NC(C)=O)C(=O)N[C@@H](CC(=O)O)C(=O)N[C@H](C(=O)N[C@@H](CC(N)=O)C(=O)N[C@]1(C)CCCCCCC=CCCC[C@@](C)(C(=O)N[C@@H](CCC(N)=O)C(=O)N[C@@H](C)C(=O)N[C@@H](C)C(=O)N[C@@H](C)C(=O)N[C@@H](C)C(N)=O)NC(=O)[C@H](C)NC(=O)[C@H](CC(C)C)NC(=O)[C@H](Cc2ccccc2)NC(=O)[C@H](CC(C)C)NC(=O)[C@H](CC(C)C)NC(=O)[C@H]([C@@H](C)O)NC1=O)C(C)C [SP-27] (Ac-[Nle]DVN[R8]TLLFLA[S5]QAAAA-NH2; staple 5-12) | > 100 µM |

Shifting focus to the molecule that follows.
Query string: Fill in: CC50 of CCCC[C@H](NC(C)=O)C(=O)N[C@@H](CC(=O)O)C(=O)N[C@H](C(=O)N[C@@H](CC(N)=O)C(=O)N[C@@]1(C)CCCC=CCCC[C@@](C)(C(=O)N[C@@H](CC(C)C)C(=O)N[C@@H](C)C(=O)N[C@H](C(=O)N[C@@H](CCC(N)=O)C(=O)NC(C)(C)C(=O)N[C@@H](C)C(=O)N[C@@H](C)C(=O)N[C@@H](C)C(N)=O)C(C)C)NC(=O)[C@H](CC(C)C)NC(=O)[C@H](CC(C)C)NC(=O)[C@H]([C@@H](C)O)NC1=O)C(C)C [SP-21] (Ac-[Nle]DVN[S5]TLL[S5]LAVQ[Aib]AAA-NH2; staple 5-9) is ___
Result string: > 100 µM

====

Here, each record is paired with measured CC50 data.
Experiment: in vitro
Settings: dog, CC50, run with Influenza A H1N1 California/07/2009; Visual
Bridge positions count the residues as written; N and C are the ends. Square brackets hold non-standard residues; d marks the D form. Peptide text beside a SMILES is read from it. R8 = C=CCCCCCC[C@@](C)(N)C(=O)O; S5 = C=CCCC[C@](C)(N)C(=O)O; Nle = CCCC[C@H](N)C(=O)O; Aib = CC(C)(N)C(=O)O

# annotated cases, reported CC50 shown
| compound | data.value |
| --- | --- |
| CCCC[C@H](NC(C)=O)C(=O)N[C@@H](CC(=O)O)C(=O)N[C@H](C(=O)N[C@@H](CC(N)=O)C(=O)N[C@]1(C)CCCCCCC=CCCC[C@@](C)(C(=O)N[C@@H](CCC(N)=O)C(=O)N[C@@H](C)C(=O)N[C@@H](CCC(N)=O)C(=O)N[C@@H](C)C(=O)N[C@@H](C)C(N)=O)NC(=O)[C@H](C)NC(=O)[C@H](CC(C)C)NC(=O)[C@H](Cc2ccccc2)NC(=O)[C@H](CC(C)C)NC(=O)[C@H](CC(C)C)NC(=O)[C@H]([C@@H](C)O)NC1=O)C(C)C [SP-26] (Ac-[Nle]DVN[R8]TLLFLA[S5]QAQAA-NH2; staple 5-12) | > 100 µM |
| CCCC[C@H](NC(C)=O)C(=O)N[C@@H](CC(=O)O)C(=O)N[C@H](C(=O)N[C@@H](CC(N)=O)C(=O)N[C@@]1(C)CCCC=CCCC[C@@](C)(C(=O)N[C@@H](CC(C)C)C(=O)N[C@@H](C)C(=O)N[C@H](C(=O)N[C@@H](CCC(N)=O)C(=O)NC(C)(C)C(=O)N[C@@H](CCC(N)=O)C(=O)N[C@@H](C)C(=O)N[C@@H](C)C(N)=O)C(C)C)NC(=O)[C@H](CC(C)C)NC(=O)[C@H](CC(C)C)NC(=O)[C@H]([C@@H](C)O)NC1=O)C(C)C [SP-19] (Ac-[Nle]DVN[S5]TLL[S5]LAVQ[Aib]QAA-NH2; staple 5-9) | > 100 µM |

Shifting focus to the compound that follows.
Query string: Fill in: CC50 of CCCC[C@H](NC(C)=O)C(=O)N[C@@H](CC(=O)O)C(=O)N[C@H](C(=O)N[C@@H](CC(N)=O)C(=O)N[C@]1(C)CCCCCCC=CCCC[C@@](C)(C(=O)N[C@@H](C)C(=O)N[C@@H](C)C(=O)N[C@@H](C)C(=O)N[C@@H](C)C(=O)N[C@@H](C)C(N)=O)NC(=O)[C@H](C)NC(=O)[C@H](CC(C)C)NC(=O)[C@H](Cc2ccccc2)NC(=O)[C@H](CC(C)C)NC(=O)[C@H](CC(C)C)NC(=O)[C@H]([C@@H](C)O)NC1=O)C(C)C [SP-25] (Ac-[Nle]DVN[R8]TLLFLA[S5]AAAAA-NH2; staple 5-12) is ___
Result string: > 100 µM
